Consider the following molecules; for each one, report its IC50.
TARGET_DESC: USP1/UAF1 enzyme (Homo sapiens, UniProt O94782)
Sequence (O94782 whole entry): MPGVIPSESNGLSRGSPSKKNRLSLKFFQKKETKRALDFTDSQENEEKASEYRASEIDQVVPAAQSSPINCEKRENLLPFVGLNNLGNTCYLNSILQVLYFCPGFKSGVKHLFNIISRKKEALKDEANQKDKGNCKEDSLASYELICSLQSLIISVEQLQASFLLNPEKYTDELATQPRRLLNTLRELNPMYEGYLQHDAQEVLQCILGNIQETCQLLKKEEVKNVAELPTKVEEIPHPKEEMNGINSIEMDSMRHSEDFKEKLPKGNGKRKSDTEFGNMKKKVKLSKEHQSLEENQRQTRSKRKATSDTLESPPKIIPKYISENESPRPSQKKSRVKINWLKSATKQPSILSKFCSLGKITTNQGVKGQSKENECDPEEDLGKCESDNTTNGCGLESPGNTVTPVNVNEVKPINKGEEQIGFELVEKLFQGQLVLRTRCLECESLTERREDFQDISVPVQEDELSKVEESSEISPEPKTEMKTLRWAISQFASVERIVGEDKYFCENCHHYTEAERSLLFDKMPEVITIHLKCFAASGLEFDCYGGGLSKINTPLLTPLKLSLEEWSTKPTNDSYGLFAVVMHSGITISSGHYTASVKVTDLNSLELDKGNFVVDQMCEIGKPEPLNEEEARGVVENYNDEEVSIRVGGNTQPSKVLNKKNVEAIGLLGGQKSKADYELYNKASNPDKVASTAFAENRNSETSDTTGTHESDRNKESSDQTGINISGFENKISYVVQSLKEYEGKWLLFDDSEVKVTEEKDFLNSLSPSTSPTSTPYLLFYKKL
Sequence (Q8TAF3 whole entry partner): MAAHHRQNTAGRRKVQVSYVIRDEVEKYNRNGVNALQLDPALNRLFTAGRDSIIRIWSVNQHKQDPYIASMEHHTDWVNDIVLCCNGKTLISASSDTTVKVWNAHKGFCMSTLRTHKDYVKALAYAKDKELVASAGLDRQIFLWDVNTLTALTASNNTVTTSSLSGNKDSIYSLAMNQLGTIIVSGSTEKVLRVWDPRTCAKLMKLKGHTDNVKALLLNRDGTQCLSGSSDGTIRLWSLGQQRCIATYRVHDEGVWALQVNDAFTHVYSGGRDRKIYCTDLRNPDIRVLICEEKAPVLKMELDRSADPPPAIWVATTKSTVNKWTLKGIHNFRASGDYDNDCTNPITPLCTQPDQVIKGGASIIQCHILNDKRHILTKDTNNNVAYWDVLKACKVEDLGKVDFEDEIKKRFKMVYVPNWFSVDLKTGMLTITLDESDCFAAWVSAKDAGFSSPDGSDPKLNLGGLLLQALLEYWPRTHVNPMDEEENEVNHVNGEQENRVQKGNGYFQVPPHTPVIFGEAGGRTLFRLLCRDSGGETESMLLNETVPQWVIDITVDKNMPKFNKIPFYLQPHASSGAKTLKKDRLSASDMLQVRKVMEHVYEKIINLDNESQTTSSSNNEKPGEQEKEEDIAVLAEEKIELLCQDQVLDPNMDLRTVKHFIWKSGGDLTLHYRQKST
TEST_DETAILS: USP1/UAF1 deubiquitination assay (ubiquitin-rhodamine 110 substrate)
TEST_PARAMETERS: read-out: USP1 IC50 (Ub-Rho)

Value (IC50, USP1/UAF1 enzyme (Homo sapiens, UniProt O94782)) for record CCn1cc(C(F)(F)F)nc1-c1c(F)cc(CN2C(=O)CCn3nc(-c4c(Cl)cnn4C(C)C)cc32)cc1OC = < 100 nM

Value (IC50, USP1/UAF1 enzyme (Homo sapiens, UniProt O94782)) for record CC(C)n1cc(C(F)(F)F)nc1-c1ccc(CN2C(=O)CCn3nc(-c4c(Cl)cnn4C(C)C)nc32)cc1OCCO = 100 to 500 nM

Value (IC50, USP1/UAF1 enzyme (Homo sapiens, UniProt O94782)) for record COc1ncnc(C2CC2)c1-c1cc2n(n1)CCCC2Nc1ccc(-c2nc(C(F)(F)F)cn2C)c(F)c1 (centres unmarked) = < 100 nM

Value (IC50, USP1/UAF1 enzyme (Homo sapiens, UniProt O94782)) for record CCn1cc(C(F)(F)F)nc1-c1ccc(CN2C(=O)CCn3nc(-c4c(Cl)cnn4[C@H](C)COC)cc32)cc1F = < 100 nM

Value (IC50, USP1/UAF1 enzyme (Homo sapiens, UniProt O94782)) for record CCn1cc(C(F)(F)F)nc1-c1ccc(CN2C(=O)[C@H](C)Cn3nc(-c4c(OC)ncnc4C4CC4)nc32)cc1 = < 100 nM

Value (IC50, USP1/UAF1 enzyme (Homo sapiens, UniProt O94782)) for record CCn1cc(C(F)(F)F)nc1-c1ccc(CN2C(=O)C(C)Cn3nc(-c4c(Cl)cnn4C(C)C)nc32)cc1F (centres unmarked) = < 100 nM

Value (IC50, USP1/UAF1 enzyme (Homo sapiens, UniProt O94782)) for record CCOc1cccnc1-c1ccc(CN2C(=O)CCn3nc(-c4c(Cl)cnn4C(C)C)cc32)cc1Cl = < 100 nM

Value (IC50, USP1/UAF1 enzyme (Homo sapiens, UniProt O94782)) for record Cc1cn2ccnc(-c3ccc(CN4C(=O)CCn5nc(-c6c(Cl)cnn6C(C)C)cc54)cc3Cl)c2n1 = 100 to 500 nM

Value (IC50, USP1/UAF1 enzyme (Homo sapiens, UniProt O94782)) for record CCn1cc(C#N)nc1-c1ccc(NC2CCCn3nc(-c4c(Cl)cnn4C(C)C)cc32)cc1 (centres unmarked) = < 100 nM

Value (IC50, USP1/UAF1 enzyme (Homo sapiens, UniProt O94782)) for record CCn1cc(C(F)(F)F)nc1-c1ccc(N[C@H]2CCCn3nc(-c4c(OC)ncnc4C4CC4)cc32)cc1 (single isomer, unassigned) = < 100 nM

Value (IC50, USP1/UAF1 enzyme (Homo sapiens, UniProt O94782)) for record CCn1cc(C(F)(F)F)nc1-c1ccc([C@@H](C)N2C(=O)CCn3nc(-c4c(Cl)cnn4C(C)C)cc32)cn1 = < 100 nM

Value (IC50, USP1/UAF1 enzyme (Homo sapiens, UniProt O94782)) for record Cc1cc(C(F)(F)F)nn1-c1ccc(CN2C(=O)CCn3nc(-c4c(Cl)cnn4C(C)C)cc32)cc1 = < 100 nM

Value (IC50, USP1/UAF1 enzyme (Homo sapiens, UniProt O94782)) for record CC(C)n1ccnc1-c1ccc(CN2C(=O)CCn3nc(-c4c(Cl)cnn4C(C)C)cc32)cc1Cl = 100 to 500 nM

Value (IC50, USP1/UAF1 enzyme (Homo sapiens, UniProt O94782)) for record CCn1cc(C(F)(F)F)nc1-c1ccc(N(C)C2CCCc3nn(-c4ccccc4C(C)C)cc32)cc1F (centres unmarked) = 100 to 500 nM
